Test system: LXFL 529
Assay: NCI tumour cell line growth inhibition, 48 h
Calls of active or inactive are those of the source. No stated cut-off is given here; in the data, active = GI50 up to about 1.1 µM and inactive = higher.
Outcome codes: active, inactive

{"columns": ["Compound", "Assay system", "Category"],
 "data": [
  ["Cc1cc2c(cc1C)[n+]([O-])c(-c1c(Cl)cccc1Cl)c(N)[n+]2[O-]", "LXFL 529", "inactive"],
  ["COc1ccccc1C(N)c1ccccc1 (configuration not stated)", "LXFL 529", "inactive"],
  ["O=C1CCC(c2ccccc2)=NN1c1nsc2ccccc12", "LXFL 529", "inactive"],
  ["O=C(N/N=C/C=C/c1ccccc1)[C@H](O)[C@@H](O)C(=O)N/N=C/C=C/c1ccccc1", "LXFL 529", "inactive"],
  ["O=C(NC12CC3CC(CC(C3)C1)C2)C(=O)c1c[nH]c2ccc(Cl)cc12", "LXFL 529", "inactive"],
  ["O=c1ccc2cc3ccc4cccc5ccc(c2o1)c3c45", "LXFL 529", "inactive"],
  ["O=C(O)CN(c1ccccc1)S(=O)(=O)c1ccc([N+](=O)[O-])cc1", "LXFL 529", "inactive"],
  ["O=C1c2ccccc2C(=O)c2cc3c(cc21)C[S+]([O-])C3", "LXFL 529", "inactive"],
  ["CCOC(=O)c1cc2c(cn1)[nH]c1cccc(N)c12", "LXFL 529", "inactive"],
  ["COc1cc2[nH]c3c(c2cc1OC)CCN[C@@]31CC[C@@]2(CC3c4c(cc(OC)c(O)c42)CCN3C)C[C@@H]1OC (some centres not stated)", "LXFL 529", "inactive"],
  ["CC[C@](O)(C(=O)O)c1cc2n(c(=O)c1CO)Cc1cc3ccccc3nc1-2", "LXFL 529", "active"],
  ["O=C(O)CCC(O)=C1S(=O)(=O)OCCOS1(=O)=O", "LXFL 529", "inactive"]
]}

----------
Test system: MDA-MB-231
Assay: NCI tumour cell line growth inhibition, 48 h
Calls of active or inactive are those of the source. No stated cut-off is given here; in the data, active = GI50 up to about 1.1 µM and inactive = higher.
Measured endpoint: GI50

{"columns": ["Compound", "Assay result"],
 "data": [
  ["COc1cc(Cc2cc3c(c(C(=O)O)c2Br)OCO3)cc(OC)c1OC", "> 100 µM (inactive)"],
  ["O=c1c2nc3ccccc3c(=O)n2ncn1-c1ccccc1Cl", "> 100 µM (inactive)"],
  ["CCOC(=O)C(C(=S)SC)c1nn2c(=O)cc(C)nc2s1 (centres undefined)", "19.5 µM (inactive)"],
  ["O=P(c1ccccc1)(c1ccccc1)c1ccc2c(c1)OCCOCCOCCOCCO2", "> 100 µM (inactive)"],
  ["COc1cc([C@@H]2c3cc4c(cc3[C@@H](c3c(O)cc(O)c5c3O[C@H](c3ccc(O)c(O)c3)[C@@H](O)C5)[C@H]3COC(=O)[C@H]23)OCO4)cc(OC)c1O", "> 100 µM (inactive)"],
  ["Cc1[nH]c2ncn(/N=C/c3ccccc3O)c(=N)c2c1Cc1ccccc1", "24.9 µM (inactive)"],
  ["CCCCCCCCCCCOCCC1C(C(C)OCCN2CCCC2)OC2OC(C)(C)OC21 (centres undefined)", "1.85 µM (inactive)"],
  ["O=[N+]([O-])c1ccc(/C=C(/c2ccc([N+](=O)[O-])o2)S(=O)(=O)c2ccccc2)cc1", "14.3 µM (inactive)"],
  ["CCCCCCCN1C(=O)C(O)(c2ccc(C3(O)C(=O)N(CCCCCCC)c4ccccc43)s2)c2ccccc21 (centres undefined)", "2.19 µM (inactive)"]
]}
